biological target: Serine/threonine-protein phosphatase PP1-alpha catalytic subunit (Homo sapiens); assay: inhibition of human PP1 catalytic subunit – biochemical, fluorescence, OMFP substrate, single point, counter-screen for PP5 inhibitor project, primary screen (AID 2235); conditions: purified PP1alpha, at 6.7 µM, stronger effect = higher value
Screen size: about 320,000 compounds; about 2,800 (0.88%) were called active. For the sample, actives were picked, then their nearest neighbours and some compounds at random.
Task for the reader: assign each of the following molecules its reported inhibition.
Write it as a number; the unit % goes unstated.

Qu. # get_value(readout='inhibition', item= CN(CC(=O)Nc1ccc(Cl)cc1)C(=O)CNC(=O)c1ccc2ccccc2c1 )
Ans. -2.18

Qu. # get_value(readout='inhibition', item= O=C(NCCN1CCOCC1)c1cc(-c2cccs2)nc2ccccc12 )
Ans. -5.13

Qu. # get_value(readout='inhibition', item= Cc1cc(Nc2cccc(F)c2)n2ncnc2n1 )
Ans. -2.78

Qu. # get_value(readout='inhibition', item= CC(NCc1ccccc1OC1CCCC1)c1ccccc1 (stereo unspecified) )
Ans. -3.47

Qu. # get_value(readout='inhibition', item= CC1(C)CC(=O)C(N=Nc2ccc(S(=O)(=O)N3CCCCCC3)cc2)=C(O)C1 )
Ans. -0.81

Qu. # get_value(readout='inhibition', item= O=S(=O)(NCc1ccc2c(c1)OCO2)c1cccc2nsnc12 )
Ans. -1.4

Qu. # get_value(readout='inhibition', item= C1CC1Cc1noc(CN2CCN(CC3CC3)CC2)n1 )
Ans. -4.45

Qu. # get_value(readout='inhibition', item= O=C(Nc1nnc(-c2ccccc2)o1)c1cc(-c2cccs2)nc2ccccc12 )
Ans. 34.7

Qu. # get_value(readout='inhibition', item= C[N+](C)(C)CCOP(=O)([O-])OC[C@H](O)CO )
Ans. -5.96

Qu. # get_value(readout='inhibition', item= COC(=O)c1c(C)c(C)nc(N)c1C#N )
Ans. -0.85

Qu. # get_value(readout='inhibition', item= COc1ccc(OC)c(NC(=O)CN(Cc2ccc(Cl)cc2)S(C)(=O)=O)c1 )
Ans. 0.99

----------
target: Serine/threonine-protein phosphatase PP1-alpha catalytic subunit (Homo sapiens) (UniProt P62136); test: inhibition of human PP1 catalytic subunit – biochemical, fluorescence, OMFP substrate, single point, counter-screen for PP5 inhibitor project, primary screen (AID 2235); conditions: purified PP1alpha, at 6.7 µM, stronger effect = higher value
Sequence (P62136 whole entry, looked up): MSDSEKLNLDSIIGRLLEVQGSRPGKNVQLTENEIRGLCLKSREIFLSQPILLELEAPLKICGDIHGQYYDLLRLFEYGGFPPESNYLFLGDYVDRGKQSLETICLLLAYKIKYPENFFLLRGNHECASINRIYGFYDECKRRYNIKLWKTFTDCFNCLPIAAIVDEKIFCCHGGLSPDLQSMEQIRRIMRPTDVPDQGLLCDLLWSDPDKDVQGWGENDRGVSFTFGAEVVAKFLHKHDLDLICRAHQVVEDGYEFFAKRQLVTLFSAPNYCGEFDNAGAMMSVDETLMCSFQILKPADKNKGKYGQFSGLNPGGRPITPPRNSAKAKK
The whole screen tested about 320,000 compounds, of which about 2,800 (0.88%) were called active. The sample holds actives, similar compounds and a random draw of the others, so the mix is not that of the screen.
Property label: inhibition (%)
Write it as a number; the unit % goes unstated.

Qu. # get_value(readout='inhibition', item= O=C(Nc1ccc(S(=O)(=O)Nc2nccs2)cc1)c1cc(=O)[nH]c2ccccc12 )
Ans. 0.73

Qu. # get_value(readout='inhibition', item= [2H]C(CCOS(N)(=O)=O)c1ccccc1 (stereo unspecified) )
Ans. -3.22

Qu. # get_value(readout='inhibition', item= Cc1cc(C)cc(NC(=O)Cn2cnc3c(nnn3Cc3ccc(F)cc3)c2=O)c1 )
Ans. 8.94

Qu. # get_value(readout='inhibition', item= COc1ccc(NC(=O)CNC(=O)Cc2ccccc2)cc1OC )
Ans. -3.57

Qu. # get_value(readout='inhibition', item= O=C(C1=C(O)C(=O)N(Cc2ccccc2)C1c1cccnc1)c1ccco1 (stereo unspecified) )
Ans. 0.59

Qu. # get_value(readout='inhibition', item= Cc1ccc(O)c(CNc2nc3ccccc3n2C)c1 )
Ans. -1.3

Qu. # get_value(readout='inhibition', item= Cc1ccc(NC(=O)CN(C)C(=O)COC(=O)c2nccnc2N)cc1 )
Ans. 6.11

Qu. # get_value(readout='inhibition', item= CCOc1cc(N2CCOCC2)c(OCC)cc1NC(=O)COc1cccc2cccnc12 )
Ans. 2.8

Qu. # get_value(readout='inhibition', item= COc1ccc(C2=NN(C(=O)CSc3nnnn3C)C(c3ccco3)C2)cc1 (stereo unspecified) )
Ans. -2.47

Qu. # get_value(readout='inhibition', item= O=C(Nc1ccc(S(=O)(=O)Nc2nccs2)cc1)c1cc(-c2ccncc2)nc2ccccc12 )
Ans. 27.5

Qu. # get_value(readout='inhibition', item= COc1ccc(NC(=O)C2C3CCC(O3)C2C(=O)O)cc1OC (stereo unspecified) )
Ans. 71.5

Qu. # get_value(readout='inhibition', item= CCOc1ccc(C2/C(=C(/O)c3ccc4c(c3)CC(C)O4)C(=O)C(=O)N2CCCn2ccnc2)cc1 (stereo unspecified) )
Ans. 9.12

Qu. # get_value(readout='inhibition', item= COc1ccc2c(c1)c(C(=O)N/N=C/c1cccs1)c(C)n2C )
Ans. -3.65

Qu. # get_value(readout='inhibition', item= Cc1ccc(-c2nn(-c3ccccc3)cc2CN(Cc2ccccc2)C(=O)CCC(=O)O)o1 )
Ans. -2.67

Qu. # get_value(readout='inhibition', item= CCC(C)(C)NC(=O)C(c1ccc(O)cc1)N(C(=O)Cn1nnc2ccccc21)c1ccc(NC(C)=O)cc1 (stereo unspecified) )
Ans. 4.46

Qu. # get_value(readout='inhibition', item= CCCN(CCC)CCCNC(=O)CNC(=O)c1nn(-c2ccc(OC)cc2)c(=O)c2ccccc12 )
Ans. -4.54

Qu. # get_value(readout='inhibition', item= CC(C)OC(=O)c1cc(NC(=O)C2C3CCC(O3)C2C(=O)O)cc(C(=O)OC(C)C)c1 (stereo unspecified) )
Ans. 48.8

Qu. # get_value(readout='inhibition', item= O=C(Cc1cccc2ccccc12)NNC(=O)Nc1ccc(Cl)cc1 )
Ans. -1.41

Qu. # get_value(readout='inhibition', item= O=C(NC(Cc1c[nH]c2ccccc12)C(=O)O)/C(=C/c1ccco1)NC(=O)c1ccccc1 (stereo unspecified) )
Ans. -3.53

Qu. # get_value(readout='inhibition', item= Oc1ccc(C2Nc3cccc4cccc(c34)N2)cc1 )
Ans. 30.9

Qu. # get_value(readout='inhibition', item= O=C(Nc1ccc(F)cc1)N1CCCC(c2nc3c(nnn3Cc3ccccc3Cl)c(=O)[nH]2)C1 (stereo unspecified) )
Ans. 4.93

Qu. # get_value(readout='inhibition', item= CC(=O)Nc1ccc(C(=O)NNC(=O)CCCCC(=O)NNC(=O)c2ccc(NC(C)=O)cc2)cc1 )
Ans. -4.34

Qu. # get_value(readout='inhibition', item= COc1cccc(C2Nc3cccc4cccc(c34)N2)c1 )
Ans. 3.61

Qu. # get_value(readout='inhibition', item= CCCCCCCC(=O)NC(Nc1ccccc1OC)C(Cl)(Cl)Cl (stereo unspecified) )
Ans. 4.91

Qu. # get_value(readout='inhibition', item= COc1ccc(/C=C2\SC(=S)N(CCCC(=O)NC3CCCC3)C2=O)cc1OC )
Ans. 3.46

Qu. # get_value(readout='inhibition', item= Cc1cc2oc(=O)cc(CN3CCN(S(=O)(=O)c4cccs4)CC3)c2cc1C(C)C )
Ans. -3.33

Qu. # get_value(readout='inhibition', item= Cc1cc2nc3c(=O)n(Cc4ccccc4)c(=O)[nH]c3nc2cc1N )
Ans. 2.81

Qu. # get_value(readout='inhibition', item= CCC(C)N(C(=O)CSc1nnnn1-c1ccccc1OC)C1CCS(=O)(=O)C1 (stereo unspecified) )
Ans. -1.76

Qu. # get_value(readout='inhibition', item= CCOc1ccc(C)cc1S(=O)(=O)NC1CCCCCC1 )
Ans. 0.47

Qu. # get_value(readout='inhibition', item= COc1cc(S(=O)(=O)N2CCOCC2)ccc1NC(=O)COc1ccc(N(C)S(=O)(=O)c2ccc(C)cc2)cc1 )
Ans. 5.5

Qu. # get_value(readout='inhibition', item= O=C(Nc1cccc(F)c1)c1cc(-c2ccco2)nc2ccccc12 )
Ans. 17

Qu. # get_value(readout='inhibition', item= C=CCOc1cccc(C2C(C(=O)c3ccc(C)o3)=C(O)C(=O)N2c2nnc(C)s2)c1 (stereo unspecified) )
Ans. 2.22

Qu. # get_value(readout='inhibition', item= CCCOc1ccc(C2C(C(=O)c3ccc(C)o3)=C(O)C(=O)N2CCCn2ccnc2)cc1 (stereo unspecified) )
Ans. 33.5

Qu. # get_value(readout='inhibition', item= COC(=O)c1cc(NC(=O)C2C3C=CC(C3)C2C(=O)O)cc(C(=O)OC)c1 (stereo unspecified) )
Ans. 2.03

Qu. # get_value(readout='inhibition', item= COc1ccc2c(CN3CCN(S(=O)(=O)c4cccs4)CC3)cc(=O)oc2c1 )
Ans. 4.63

Qu. # get_value(readout='inhibition', item= CCOC(=O)Cc1cc(=O)[nH]c(=O)[nH]1 )
Ans. -3.59

Qu. # get_value(readout='inhibition', item= CN(C(=O)CSc1nnc(-c2n[nH]c3ccccc23)o1)c1ccccc1 )
Ans. -3.45

Qu. # get_value(readout='inhibition', item= O=C(CCCN1C(=O)/C(=C/c2ccccc2)SC1=S)Nc1ccc(O)cc1 )
Ans. 1.67

Qu. # get_value(readout='inhibition', item= CCN(CC)CCNC(=O)c1ccc(NC(=O)c2cc(-c3ccncc3)nc3ccccc23)cc1 )
Ans. -7.72

Qu. # get_value(readout='inhibition', item= CCCc1nnc(NC(=O)CCC(=O)N2CCN(S(=O)(=O)c3ccc(OC)cc3)CC2)s1 )
Ans. -4.44

Qu. # get_value(readout='inhibition', item= O=C(Nc1ccc(S(=O)(=O)NCC2CCCO2)cc1)c1ccc(F)cc1 (stereo unspecified) )
Ans. 1.04
